# tested_system: T1, Ax1 protein, extracellular domain (human, UniProt P30530 26-451)
# T1 construct: extracellular domain; also called Axl; Ark
# T1 sequence (looked up): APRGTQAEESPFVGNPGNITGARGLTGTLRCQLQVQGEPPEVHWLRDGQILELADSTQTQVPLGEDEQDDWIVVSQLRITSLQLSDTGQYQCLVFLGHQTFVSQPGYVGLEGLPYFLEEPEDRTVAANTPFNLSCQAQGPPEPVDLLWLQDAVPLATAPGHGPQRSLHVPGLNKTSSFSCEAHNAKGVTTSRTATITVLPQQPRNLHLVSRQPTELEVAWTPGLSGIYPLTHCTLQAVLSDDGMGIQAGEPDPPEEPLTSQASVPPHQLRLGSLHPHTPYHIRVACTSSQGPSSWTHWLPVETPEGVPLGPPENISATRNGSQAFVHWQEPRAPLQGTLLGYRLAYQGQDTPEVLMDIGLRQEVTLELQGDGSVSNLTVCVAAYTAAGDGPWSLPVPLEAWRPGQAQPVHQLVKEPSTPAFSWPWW
# procedure_text: ELISA, mutant diluted 1:3
# Description: The DNA encoding the wild-type antibody was evolved to generate a mutant antibody library using Comprehensive Positional Evolution (CPE), which each position in the template antibody is randomized one at a time. Each mutant antibody in the library has only one single point mutation. The mutant antibodies in the library were generated by simultaneously screening for selective binding affinity to Ax1 at pH 6.0 over pH 7.4 by ELISA. Two mutant antibody dilutions were used: 1:3 and 1:9 dilutions.
endpoint_label: Affinity ELISA CPE mutant ratio (1:3, pH 6.0/7.4)
Could you respond with only the numeric value?

• HC-W110P (antibody, V domains shown) VH: EVQLVQSGAEVKKPGATVKISCKVSGYSFTGHTMNWIRQPPGKGLEWIGLIKPSNGGTSYNQKFKGRVTISADKSISTAYLQWSSLKASDTAMYYCAHGHYESYFAMDYPGQGTLVTVSS VL: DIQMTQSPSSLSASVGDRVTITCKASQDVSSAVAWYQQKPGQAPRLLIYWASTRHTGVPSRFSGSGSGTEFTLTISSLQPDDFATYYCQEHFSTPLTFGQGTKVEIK = 6.49
• LC-F092E (antibody, V domains shown, CPE single point mutant) VH: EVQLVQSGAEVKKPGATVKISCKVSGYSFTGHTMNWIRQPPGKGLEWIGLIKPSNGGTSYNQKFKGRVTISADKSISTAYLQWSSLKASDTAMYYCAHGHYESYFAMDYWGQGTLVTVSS VL: DIQMTQSPSSLSASVGDRVTITCKASQDVSSAVAWYQQKPGQAPRLLIYWASTRHTGVPSRFSGSGSGTEFTLTISSLQPDDFATYYCQEHESTPLTFGQGTKVEIK = 1.76

Request: Suppose we examine the binder HC-Y101N (antibody, V domains shown, CPE single point mutant) VH: EVQLVQSGAEVKKPGATVKISCKVSGYSFTGHTMNWIRQPPGKGLEWIGLIKPSNGGTSYNQKFKGRVTISADKSISTAYLQWSSLKASDTAMYYCAHGHNESYFAMDYWGQGTLVTVSS VL: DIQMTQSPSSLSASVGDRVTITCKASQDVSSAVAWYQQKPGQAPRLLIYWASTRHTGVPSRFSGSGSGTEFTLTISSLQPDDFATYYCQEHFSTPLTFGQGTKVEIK ; what Affinity ELISA CPE mutant ratio (1:3, pH 6.0/7.4) value has been reported?
Response: 2.17
